Study system: Melanocyte-stimulating hormone receptor (Mus musculus)
Sequence (Q01727 whole entry): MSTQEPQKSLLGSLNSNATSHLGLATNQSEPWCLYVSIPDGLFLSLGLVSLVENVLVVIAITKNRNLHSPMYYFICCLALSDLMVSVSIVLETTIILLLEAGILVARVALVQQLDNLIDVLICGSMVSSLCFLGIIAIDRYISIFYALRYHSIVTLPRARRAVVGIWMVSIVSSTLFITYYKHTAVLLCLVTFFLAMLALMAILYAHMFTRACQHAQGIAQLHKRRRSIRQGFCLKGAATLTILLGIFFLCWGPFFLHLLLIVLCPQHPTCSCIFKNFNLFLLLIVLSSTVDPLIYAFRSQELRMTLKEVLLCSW
Test name: Agonist activity at mouse MC1 receptor expressed in HEK293 cells after 6 hrs by cAMP-based beta-galactosidase reporter gene assay
Assay type: functional, cell-based
Stated conditions: hek293
# key: entry, value: EC50
Form entry: value (nM) — number only.

Worked cases, answers included:
{"Smiles notation": "C[C@@H]1NC(=O)[C@H](CC(N)=O)NC(=O)[C@H](Cc2c[nH]c3ccccc23)N2C[C@H](CCCCN)NC(=O)[C@H](CSCC2=O)NC(=O)[C@@H](Cc2ccccc2)NC(=O)[C@H](Cc2c[nH]cn2)NC(=O)[C@@H](NC(=O)[C@@H](N)Cc2ccc(O)cc2)CSSC[C@@H](C(=O)N[C@@H](Cc2ccc(O)cc2)C(N)=O)NC(=O)[C@H](Cc2ccccc2)NC1=O", "EC50 (nM)": 30}
{"Smiles notation": "C[C@@H]1NC(=O)[C@H](CC(N)=O)NC(=O)[C@H](C)N2C[C@H](CCCNC(=N)N)NC(=O)[C@H](CSCC2=O)NC(=O)[C@@H](Cc2ccccc2)NC(=O)[C@H](Cc2c[nH]cn2)NC(=O)[C@@H](NC(=O)[C@@H](N)Cc2ccc(O)cc2)CSSC[C@@H](C(=O)N[C@@H](Cc2ccc(O)cc2)C(N)=O)NC(=O)[C@H](Cc2ccccc2)NC1=O", "EC50 (nM)": 80}

Any idea what EC50 was measured for C[C@@H]1NC(=O)[C@H](CC(N)=O)NC(=O)[C@H](Cc2c[nH]c3ccccc23)N2C[C@H](CCCNC(=N)N)NC(=O)[C@H](CSCC2=O)NC(=O)[C@@H](Cc2ccc(-c3ccccc3)cc2)NC(=O)[C@H](Cc2c[nH]cn2)NC(=O)[C@@H](NC(=O)[C@@H](N)Cc2ccc(O)cc2)CSSC[C@@H](C(=O)N[C@@H](Cc2ccc(O)cc2)C(N)=O)NC(=O)[C@H](Cc2ccccc2)NC1=O ?
1.1

---

Study system: Melanocortin receptor 4 (Mus musculus)
Sequence (P56450 whole entry): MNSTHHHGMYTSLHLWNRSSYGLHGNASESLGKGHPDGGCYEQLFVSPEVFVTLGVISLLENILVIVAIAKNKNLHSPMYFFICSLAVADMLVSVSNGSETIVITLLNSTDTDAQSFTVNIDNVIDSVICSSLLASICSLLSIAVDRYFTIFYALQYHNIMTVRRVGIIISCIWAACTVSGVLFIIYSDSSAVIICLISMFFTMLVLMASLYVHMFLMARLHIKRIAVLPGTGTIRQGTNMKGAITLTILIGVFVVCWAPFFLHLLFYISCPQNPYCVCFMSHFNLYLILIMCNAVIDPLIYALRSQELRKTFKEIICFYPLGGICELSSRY
Test name: Agonist activity at mouse MC4 receptor expressed in HEK293 cells after 6 hrs by cAMP-based beta-galactosidase reporter gene assay
Type: functional, cell-based
Stated conditions: hek293
Metric: EC50 (nM)
Form entry: value (nM) — number only.

Worked cases, answers included:
{"Smiles notation": "C[C@@H]1NC(=O)[C@H](CC(N)=O)NC(=O)[C@H](Cc2c[nH]c3ccccc23)N2C[C@H](CCCNC(=N)N)NC(=O)[C@H](CSCC2=O)NC(=O)[C@@H](Cc2ccc(-c3ccccc3)cc2)NC(=O)[C@H](Cc2c[nH]cn2)NC(=O)[C@@H](NC(=O)[C@@H](N)Cc2ccc(O)cc2)CSSC[C@@H](C(=O)N[C@@H](Cc2ccc(O)cc2)C(N)=O)NC(=O)[C@H](Cc2ccccc2)NC1=O", "Study system": "Melanocortin receptor 4 (Mus musculus)", "Value reported": 760}
{"Smiles notation": "C[C@@H]1NC(=O)[C@H](CC(N)=O)NC(=O)[C@@H](Cc2ccc3ccccc3c2)N2C[C@H](CCCNC(=N)N)NC(=O)[C@H](CSCC2=O)NC(=O)[C@@H](Cc2ccccc2)NC(=O)[C@H](Cc2c[nH]cn2)NC(=O)[C@@H](NC(=O)[C@@H](N)Cc2ccc(O)cc2)CSSC[C@@H](C(=O)N[C@@H](Cc2ccc(O)cc2)C(N)=O)NC(=O)[C@H](Cc2ccccc2)NC1=O", "Study system": "Melanocortin receptor 4 (Mus musculus)", "Value reported": 50}
{"Smiles notation": "C[C@@H]1NC(=O)[C@H](CC(N)=O)NC(=O)[C@H](Cc2ccc(-c3ccccc3)cc2)N2C[C@H](CCCNC(=N)N)NC(=O)[C@H](CSCC2=O)NC(=O)[C@@H](Cc2ccccc2)NC(=O)[C@H](Cc2c[nH]cn2)NC(=O)[C@@H](NC(=O)[C@@H](N)Cc2ccc(O)cc2)CSSC[C@@H](C(=O)N[C@@H](Cc2ccc(O)cc2)C(N)=O)NC(=O)[C@H](Cc2ccccc2)NC1=O", "Study system": "Melanocortin receptor 4 (Mus musculus)", "Value reported": 980}
{"Smiles notation": "C[C@@H]1NC(=O)[C@H](CC(N)=O)NC(=O)[C@H](Cc2c[nH]c3ccccc23)N2C[C@H](CCCCN)NC(=O)[C@H](CSCC2=O)NC(=O)[C@@H](Cc2ccccc2)NC(=O)[C@H](Cc2c[nH]cn2)NC(=O)[C@@H](NC(=O)[C@@H](N)Cc2ccc(O)cc2)CSSC[C@@H](C(=O)N[C@@H](Cc2ccc(O)cc2)C(N)=O)NC(=O)[C@H](Cc2ccccc2)NC1=O", "Study system": "Melanocortin receptor 4 (Mus musculus)", "Value reported": 420}

Here's the next entry for you.
Requested read-out EC50, target or system Melanocortin receptor 4 (Mus musculus), entry C[C@@H]1NC(=O)[C@H](CC(N)=O)NC(=O)[C@H](Cc2c[nH]c3ccccc23)N2C[C@H](CCCNC(=N)N)NC(=O)[C@H](CSCC2=O)NC(=O)[C@@H](Cc2ccc3ccccc3c2)NC(=O)[C@H](Cc2c[nH]cn2)NC(=O)[C@@H](NC(=O)[C@@H](N)Cc2ccc(O)cc2)CSSC[C@@H](C(=O)N[C@@H](Cc2ccc(O)cc2)C(N)=O)NC(=O)[C@H](Cc2ccccc2)NC1=O
190

---

# key: entry, value: EC50
Study system: UniProt P56450
Test name: Agonist activity at mouse MC4 receptor expressed in HEK293 cells after 6 hrs by cAMP-based beta-galactosidase reporter gene assay
Type: functional, cell-based
Stated conditions: hek293
Form entry: value (nM) — number only.

{"Smiles notation": "C[C@@H]1NC(=O)[C@H](CC(N)=O)NC(=O)[C@H](Cc2c[nH]c3ccccc23)N2C[C@H](CCCNC(=N)N)NC(=O)[C@H](CSCC2=O)NC(=O)[C@@H](Cc2cccc3ccccc23)NC(=O)[C@H](Cc2c[nH]cn2)NC(=O)[C@@H](NC(=O)[C@@H](N)Cc2ccc(O)cc2)CSSC[C@@H](C(=O)N[C@@H](Cc2ccc(O)cc2)C(N)=O)NC(=O)[C@H](Cc2ccccc2)NC1=O", "Display unit": "nM", "EC50": 130}
{"Smiles notation": "C[C@@H]1NC(=O)[C@H](CC(N)=O)NC(=O)[C@H](Cc2c[nH]c3ccccc23)N2C[C@H](CCCNC(=N)N)NC(=O)[C@H](CSCC2=O)NC(=O)[C@@H](Cc2ccc(I)cc2)NC(=O)[C@H](Cc2c[nH]cn2)NC(=O)[C@@H](NC(=O)[C@@H](N)Cc2ccc(O)cc2)CSSC[C@@H](C(=O)N[C@@H](Cc2ccc(O)cc2)C(N)=O)NC(=O)[C@H](Cc2ccccc2)NC1=O", "Display unit": "nM", "EC50": 20}
{"Smiles notation": "C[C@@H]1NC(=O)[C@H](CC(N)=O)NC(=O)[C@H](Cc2c[nH]c3ccccc23)N2C[C@H](CCCNC(=N)N)NC(=O)[C@H](CSCC2=O)NC(=O)[C@@H](Cc2ccccc2)NC(=O)[C@@H]2CCCN2C(=O)[C@@H](NC(=O)[C@@H](N)Cc2ccc(O)cc2)CSSC[C@@H](C(=O)N[C@@H](Cc2ccc(O)cc2)C(N)=O)NC(=O)[C@H](Cc2ccccc2)NC1=O", "Display unit": "nM", "EC50": 240}

Any idea what EC50 was measured for C[C@@H]1NC(=O)[C@H](CC(N)=O)NC(=O)[C@H](Cc2c[nH]c3ccccc23)N2C[C@H](CCCCNC(=N)N)NC(=O)[C@H](CSCC2=O)NC(=O)[C@@H](Cc2ccccc2)NC(=O)[C@H](Cc2c[nH]cn2)NC(=O)[C@@H](NC(=O)[C@@H](N)Cc2ccc(O)cc2)CSSC[C@@H](C(=O)N[C@@H](Cc2ccc(O)cc2)C(N)=O)NC(=O)[C@H](Cc2ccccc2)NC1=O ?
965

Any idea what EC50 was measured for C[C@@H]1NC(=O)[C@H](CC(N)=O)NC(=O)[C@H](Cc2c[nH]c3ccccc23)N2C[C@H](CCCN=C(N)N)NC(=O)[C@H](CSCC2=O)NC(=O)[C@@H](Cc2ccccc2)NC(=O)[C@H](Cc2cnc[nH]2)NC(=O)[C@@H](NC(=O)[C@@H](N)Cc2ccc(O)cc2)CSSC[C@@H](C(=O)N[C@@H](Cc2ccc(O)cc2)C(N)=O)NC(=O)[C@H](Cc2ccccc2)NC1=O ?
190

Any idea what EC50 was measured for C[C@@H]1NC(=O)[C@H](CC(N)=O)NC(=O)[C@H](Cc2c[nH]c3ccccc23)N2C[C@H](C)NC(=O)[C@H](CSCC2=O)NC(=O)[C@@H](Cc2ccccc2)NC(=O)[C@H](Cc2c[nH]cn2)NC(=O)[C@@H](NC(=O)[C@@H](N)Cc2ccc(O)cc2)CSSC[C@@H](C(=O)N[C@@H](Cc2ccc(O)cc2)C(N)=O)NC(=O)[C@H](Cc2ccccc2)NC1=O ?
1300

Any idea what EC50 was measured for C[C@@H]1NC(=O)[C@H](CC(N)=O)NC(=O)[C@H](Cc2c[nH]c3ccccc23)N2C[C@H](CCCNC(=N)N)NC(=O)[C@H](CSCC2=O)NC(=O)[C@@H]2CCCN2C(=O)[C@H](Cc2c[nH]cn2)NC(=O)[C@@H](NC(=O)[C@@H](N)Cc2ccc(O)cc2)CSSC[C@@H](C(=O)N[C@@H](Cc2ccc(O)cc2)C(N)=O)NC(=O)[C@H](Cc2ccccc2)NC1=O ?
5400

Any idea what EC50 was measured for C[C@@H]1NC(=O)[C@H](CC(N)=O)NC(=O)[C@H](C)N2C[C@H](CCCNC(=N)N)NC(=O)[C@H](CSCC2=O)NC(=O)[C@@H](Cc2ccccc2)NC(=O)[C@H](Cc2c[nH]cn2)NC(=O)[C@@H](NC(=O)[C@@H](N)Cc2ccc(O)cc2)CSSC[C@@H](C(=O)N[C@@H](Cc2ccc(O)cc2)C(N)=O)NC(=O)[C@H](Cc2ccccc2)NC1=O ?
210
